Task for the reader: assign each of the following molecules its reported Conductivity (ΛM) DMSO.
- measurement-description: Conductivity measurement
- Format: physicochemical
- test-settings: in DMSO, 3 x 10^-5 M
Answer with the number, then the unit.

`C1N2CN3CN1CP(C2)C3.Cc1ccc(C(C)C)cc1.F[P-](F)(F)(F)(F)F.F[P-](F)(F)(F)(F)F.O=C(O)c1ccnc(-c2cc(C(=O)O)ccn2)c1.[Ru+2]` has a reported Conductivity (ΛM) DMSO of 75 S cm2 mol-1

`C1N2CN3CN1CP(C2)C3.Cc1ccc(C(C)C)cc1.F[P-](F)(F)(F)(F)F.F[P-](F)(F)(F)(F)F.[Ru+2].c1cnc2c(c1)ccc1cccnc12` has a reported Conductivity (ΛM) DMSO of 74 S cm2 mol-1

`C1N2CN3CN1CP(C2)C3.Cc1ccc(C(C)C)cc1.Cc1ccnc2c1ccc1c(C)ccnc12.F[P-](F)(F)(F)(F)F.F[P-](F)(F)(F)(F)F.[Ru+2]` has a reported Conductivity (ΛM) DMSO of 76 S cm2 mol-1

---

Task for the reader: assign each of the following molecules its reported Conductivity (ΛM) DMSO.
- measurement-description: Conductivity measurement
- Type: physicochemical
- test-settings: in DMSO, 3 x 10^-5 M
Answer with the number, then the unit.

`C1N2CN3CN1CP(C2)C3.Cc1ccc(C(C)C)cc1.F[P-](F)(F)(F)(F)F.F[P-](F)(F)(F)(F)F.Oc1ccnc2c1ccc1c(O)ccnc12.[Ru+2]` has a reported Conductivity (ΛM) DMSO of 72 S cm2 mol-1

`C1N2CN3CN1CP(C2)C3.Cc1ccc(C(C)C)cc1.F[P-](F)(F)(F)(F)F.F[P-](F)(F)(F)(F)F.[Ru+2].c1ccc(-c2ccnc3c2ccc2c(-c4ccccc4)ccnc23)cc1` has a reported Conductivity (ΛM) DMSO of 74 S cm2 mol-1

`C1N2CN3CN1CP(C2)C3.CCCCCCCCCc1ccnc(-c2cc(CCCCCCCCC)ccn2)c1.Cc1ccc(C(C)C)cc1.F[P-](F)(F)(F)(F)F.F[P-](F)(F)(F)(F)F.[Ru+2]` has a reported Conductivity (ΛM) DMSO of 71 S cm2 mol-1

---

- Test system: U87MG
- measurement-description: MTT cytotoxicity assay, U87MG
- Format: cell-based, human
- test-settings: 72 h incubation
- Method: The cytotoxic activity of prepared RAPTA complexes (4a–4h) was evaluated by following the standard procedure of the MTT experiment against a series of glioblastoma cells (LN 229, T98, U87MG) in triplicate. […] RAPTA complexes were dissolved in 1% DMSO, and 0.9% NaCl aqueous solution was used to dissolve cisplatin. […] The formazan crystals that were formed were dissolved in 150 μL DMSO and then the OD was measured by a microplate reader at 540 nm. […]
Task for the reader: assign each of the following molecules its reported IC50.
Value expressed in µM; do not type the unit.

C1N2CN3CN1CP(C2)C3.CCCCCCCCCc1ccnc(-c2cc(CCCCCCCCC)ccn2)c1.Cc1ccc(C(C)C)cc1.F[P-](F)(F)(F)(F)F.F[P-](F)(F)(F)(F)F.[Ru+2] [4h] has a reported IC50 of 1.46

C1N2CN3CN1CP(C2)C3.Cc1ccc(C(C)C)cc1.F[P-](F)(F)(F)(F)F.F[P-](F)(F)(F)(F)F.[Ru+2].c1ccc(-c2ccccn2)nc1 [4e] has a reported IC50 of 1.75

C1N2CN3CN1CP(C2)C3.Cc1ccc(C(C)C)cc1.Cc1ccnc2c1ccc1c(C)ccnc12.F[P-](F)(F)(F)(F)F.F[P-](F)(F)(F)(F)F.[Ru+2] [4c] has a reported IC50 of 0.97

C1N2CN3CN1CP(C2)C3.Cc1ccc(C(C)C)cc1.F[P-](F)(F)(F)(F)F.F[P-](F)(F)(F)(F)F.[Ru+2].c1ccc(-c2ccnc3c2ccc2c(-c4ccccc4)ccnc23)cc1 [4d] has a reported IC50 of 0.93

C1N2CN3CN1CP(C2)C3.Cc1ccc(C(C)C)cc1.F[P-](F)(F)(F)(F)F.F[P-](F)(F)(F)(F)F.Oc1ccnc2c1ccc1c(O)ccnc12.[Ru+2] [4a] has a reported IC50 of 1.69

C1N2CN3CN1CP(C2)C3.Cc1ccc(C(C)C)cc1.F[P-](F)(F)(F)(F)F.F[P-](F)(F)(F)(F)F.O=C(O)c1ccnc(-c2cc(C(=O)O)ccn2)c1.[Ru+2] [4f] has a reported IC50 of 1.57

C1N2CN3CN1CP(C2)C3.Cc1ccc(C(C)C)cc1.F[P-](F)(F)(F)(F)F.F[P-](F)(F)(F)(F)F.[Ru+2].c1cnc2c(c1)ccc1cccnc12 [4b] has a reported IC50 of 1.91

---

- measurement-description: Conductivity measurement
- Assay type: physicochemical
- test-settings: in 10% aq DMSO, 3 x 10^-5 M
- From the text: concentrations gradually. Origin Lab, version 8.5 was equation (v) given below: […] Conductivity measurement 7 complexes with DMSO and aqueous DMSO. followed the previously described procedure. An orbital shaker was used to shake a known Different ratios (0.5:1, 1:1, saturated n-octanol to get the partition coefficient. The absorbance of aliquots of the aqueous
Task for the reader: assign each of the following molecules its reported Conductivity (ΛM) 10% aq DMSO.
Value expressed in S cm2 mol-1; do not type the unit.

`C1N2CN3CN1CP(C2)C3.Cc1ccc(C(C)C)cc1.F[P-](F)(F)(F)(F)F.F[P-](F)(F)(F)(F)F.Oc1ccnc2c1ccc1c(O)ccnc12.[Ru+2]` has a reported Conductivity (ΛM) 10% aq DMSO of 74

`C1N2CN3CN1CP(C2)C3.CCCCCCCCCc1ccnc(-c2cc(CCCCCCCCC)ccn2)c1.Cc1ccc(C(C)C)cc1.F[P-](F)(F)(F)(F)F.F[P-](F)(F)(F)(F)F.[Ru+2]` has a reported Conductivity (ΛM) 10% aq DMSO of 77

`C1N2CN3CN1CP(C2)C3.Cc1ccc(C(C)C)cc1.F[P-](F)(F)(F)(F)F.F[P-](F)(F)(F)(F)F.O=C(O)c1ccnc(-c2cc(C(=O)O)ccn2)c1.[Ru+2]` has a reported Conductivity (ΛM) 10% aq DMSO of 77

`C1N2CN3CN1CP(C2)C3.Cc1ccc(C(C)C)cc1.Cc1ccnc2c1ccc1c(C)ccnc12.F[P-](F)(F)(F)(F)F.F[P-](F)(F)(F)(F)F.[Ru+2]` has a reported Conductivity (ΛM) 10% aq DMSO of 78

`C1N2CN3CN1CP(C2)C3.Cc1ccc(C(C)C)cc1.F[P-](F)(F)(F)(F)F.F[P-](F)(F)(F)(F)F.[Ru+2].c1cnc2c(c1)ccc1cccnc12` has a reported Conductivity (ΛM) 10% aq DMSO of 78

`C1N2CN3CN1CP(C2)C3.Cc1ccc(C(C)C)cc1.F[P-](F)(F)(F)(F)F.F[P-](F)(F)(F)(F)F.[Ru+2].c1ccc(-c2ccnc3c2ccc2c(-c4ccccc4)ccnc23)cc1` has a reported Conductivity (ΛM) 10% aq DMSO of 77
